# credit: the supplement of paper PMC10724198

For each record, write down the corresponding protein stability index.
# System: Saccharomyces cerevisiae;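 also: PSI is a weighted mean of sequencing reads over stability bins, variants kept only with over 10 reads, mCherry proximal and sfGFP distal, peptide attached via GGGS linker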
# method summary: protein stability index of tFT-peptide fusion (C-terminal peptide) (PSI (0-1 scale)); higher = more stable (slower turnover)
# run parameters: genetic background: wild type; temperature: 30 C
Give bare numbers.

Provide each entry's protein stability index from the list below.
1. RCSLRLRFIFVR
2. PVILISWQLRCY
3. LCGYVGVVVCLV
4. LLRFFPCFLGVN
5. YILIKEVLYAVC
6. LRFFLPFLLSLP

Response given:
1: 0.104; 2: 0.0174; 3: 0.209; 4: 0.425; 5: 0.17; 6: 0.164

Provide each entry's protein stability index from the list below.
1. RCQILSYCLLFV
2. SLVLLLLITFSL
3. RSSGHLLDGRAF
4. ARSGGYLMVVLV
5. LFFSFLFLATRC
6. PVWLSFHFFLCA

Response given:
1: 0.33; 2: 0.373; 3: 0.654; 4: 0.384; 5: 0.193; 6: 0.332

Provide each entry's protein stability index from the list below.
1. VCLWVEVLIVLG
2. FCCWCVCFGYSG

Response given:
1: 0.129; 2: 0.394

Provide each entry's protein stability index from the list below.
1. PPSRVSIRLLIR
2. LEYCLATYLSAC
3. FVFFRFSLLFFF
4. LLILSLLVLSSR
5. KLALVYLLIRGL
6. FTEFWFFKQMSV
7. VVGLVSIVQVIM

Response given:
1: 0.371; 2: 0.248; 3: 0.225; 4: 0.229; 5: 0.0862; 6: 0.126; 7: 0.31
